Target: T1, human FAPα-His tag (Sino biological) (human, UniProt Q12884 26-760)
T1 construct: Bought protein; also called human FAPα-His protein; not shown: His tag
T1 sequence (looked up): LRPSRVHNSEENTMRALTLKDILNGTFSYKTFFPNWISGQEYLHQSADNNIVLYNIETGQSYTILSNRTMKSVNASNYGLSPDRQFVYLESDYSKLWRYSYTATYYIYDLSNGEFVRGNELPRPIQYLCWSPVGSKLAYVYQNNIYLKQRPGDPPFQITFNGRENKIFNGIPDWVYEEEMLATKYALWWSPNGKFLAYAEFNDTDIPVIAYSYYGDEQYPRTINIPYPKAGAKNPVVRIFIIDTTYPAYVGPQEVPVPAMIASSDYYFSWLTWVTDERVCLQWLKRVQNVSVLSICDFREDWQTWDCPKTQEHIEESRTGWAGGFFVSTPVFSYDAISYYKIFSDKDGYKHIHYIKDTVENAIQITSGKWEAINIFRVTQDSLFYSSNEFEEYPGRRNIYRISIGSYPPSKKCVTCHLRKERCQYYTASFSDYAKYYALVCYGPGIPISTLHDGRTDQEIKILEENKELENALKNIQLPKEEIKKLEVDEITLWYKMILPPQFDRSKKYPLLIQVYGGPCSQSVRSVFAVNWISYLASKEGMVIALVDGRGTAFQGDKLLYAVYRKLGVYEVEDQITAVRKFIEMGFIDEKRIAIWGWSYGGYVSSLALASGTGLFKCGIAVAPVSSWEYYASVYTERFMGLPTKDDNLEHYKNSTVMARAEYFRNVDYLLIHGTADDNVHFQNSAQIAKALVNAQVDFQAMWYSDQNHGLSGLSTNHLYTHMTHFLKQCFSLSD
Experiment: competitive ELISA on coated human FAPα; competitor (detected): FAP-I30-Bio
Kindly supply the reported OD 450 nm values for the records listed here.
Please give the number followed by its unit.

// solved cases for OD 450 nm follow
binder	OD 450 nm
I37 (antibody, V domains shown, Tested as a mAb; also called FAP-I37) VH: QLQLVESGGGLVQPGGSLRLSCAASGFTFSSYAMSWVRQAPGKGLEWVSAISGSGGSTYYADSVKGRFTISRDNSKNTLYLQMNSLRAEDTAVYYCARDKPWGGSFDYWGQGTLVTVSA VL: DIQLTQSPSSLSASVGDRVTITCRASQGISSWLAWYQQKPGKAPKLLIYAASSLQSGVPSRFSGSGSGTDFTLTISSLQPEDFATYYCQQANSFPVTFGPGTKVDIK	0.239 OD 450 nm
I38 (antibody, V domains shown, Tested as a mAb; also called FAP-I38) VH: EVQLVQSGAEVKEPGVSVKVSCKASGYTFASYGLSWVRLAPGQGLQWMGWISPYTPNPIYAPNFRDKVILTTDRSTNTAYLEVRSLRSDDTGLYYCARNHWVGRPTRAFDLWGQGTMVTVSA VL: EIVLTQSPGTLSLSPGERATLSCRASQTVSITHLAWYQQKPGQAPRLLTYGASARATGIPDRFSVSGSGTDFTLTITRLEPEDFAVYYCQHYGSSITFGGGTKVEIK	0.22 OD 450 nm
J40 (antibody, V domains shown, Tested as a mAb; also called FAP-J40; FAP-J40-Bio (biotin-conjugated form)) VH: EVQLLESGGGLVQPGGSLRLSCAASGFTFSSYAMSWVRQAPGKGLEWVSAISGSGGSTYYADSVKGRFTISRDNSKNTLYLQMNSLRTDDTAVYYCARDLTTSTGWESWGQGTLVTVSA VL: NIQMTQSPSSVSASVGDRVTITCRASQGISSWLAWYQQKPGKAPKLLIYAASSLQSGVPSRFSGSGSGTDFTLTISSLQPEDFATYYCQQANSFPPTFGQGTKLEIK	0.218 OD 450 nm
G52 (antibody, V domains shown, Tested as a mAb; also called FAP-G52; FAP-G52-Bio (biotin-conjugated form)) VH: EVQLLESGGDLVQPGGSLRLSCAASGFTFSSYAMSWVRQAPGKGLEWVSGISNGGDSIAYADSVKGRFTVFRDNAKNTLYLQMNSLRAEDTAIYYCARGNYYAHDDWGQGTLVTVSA VL: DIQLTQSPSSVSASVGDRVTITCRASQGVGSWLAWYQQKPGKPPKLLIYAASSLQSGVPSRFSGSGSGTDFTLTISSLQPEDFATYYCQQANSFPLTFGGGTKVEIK	0.302 OD 450 nm

// next item, OD 450 nm requested
I am curious: what OD 450 nm value has been reported for G14 (antibody, V domains shown, Full human antibody from a Fab phage library; Tested as a mAb (detected with anti-human IgG, captured on Protein A); also called FAP-G14; FAP-G14-Bio (biotin-conjugated form)) VH: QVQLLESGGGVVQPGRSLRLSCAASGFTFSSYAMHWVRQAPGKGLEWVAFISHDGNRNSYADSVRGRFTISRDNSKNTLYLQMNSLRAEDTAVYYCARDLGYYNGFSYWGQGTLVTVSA VL: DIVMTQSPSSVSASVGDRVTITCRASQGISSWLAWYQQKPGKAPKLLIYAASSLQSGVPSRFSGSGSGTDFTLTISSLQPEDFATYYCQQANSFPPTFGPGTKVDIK ?
0.241 OD 450 nm

Cited source: patent US20250297032A1
